FYI, the data here is from paper PMC9482650.

molecular target: NOS1, P29475; assay: holdup assay; design: key: below the threshold = too weak to quantify, mostly under pKd 3.1 to 4; details: plain residues with an end cap or a label only (N-terminal biotin on a linker: ado-ado)
Sequence (P29475 9-101): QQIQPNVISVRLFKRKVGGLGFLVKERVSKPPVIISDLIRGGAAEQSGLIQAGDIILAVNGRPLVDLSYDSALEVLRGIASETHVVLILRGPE
Measured pKd, listed per entry.
RECORDED ENDPOINT: pKd

RRISSLESEV [GRIN2C, Q14957] ... 3.96
DDPSTAETVL [ABCA7, Q8IZY2] ... 3.52
QMNQTLPVQV [EPHB3, P54753] ... 4.18
HLRARKSEWV [GJD4, Q96KN9] ... 4.89
